EXPERIMENTAL_TARGET: T1, RSV postfusion F (postF), subtype A (respiratory syncytial virus, subtype A, UniProt P03420 26-513)
T1 construct: also called F ΔFP; Postfusion subtype A
METHOD_DESCRIPTION: BLI, IgG
EXPERIMENTAL_ENDPOINT: pKd
Answer as the number alone; pKd is minus log10 of concentration in mol/L.

Here's what some known entries look like.
Request: Can you share its pKd? I mean this binder: ADI-14595 (antibody, V domains shown) VH: EVQLLESGGGLVQPGGSLRLSCAASGFTFSIYSMNWVRQAPGKGLEWISYISRSGSTIFYADSVKGRFTISRDDAKNSLFLQMTSLRDADTAVYYCARVDCSNNKCYDYWGQGTLVTVSS VL: DIQLTQSPATLSLSPGERATLSCRASQSISSFLAWYQQKPGQAPRLLIYDASKRATGTPARFSGGGSGRDFTLTISSLEPEDFAVYYCQQRSSWPLYTFGQGTKVEIK
Response: 8.89

Request: Recorded pKd of ADI-20960 (antibody, V domains shown) VH: QVQLQQWGAGVLKPSETLSLTCAVNGRSLSGHYWSWIRQTPGKGLEWIGEINNSGGTHYSPSLKSRVIISGDTAKNQLSLKLSSVTAADTAVYYCAKGSAEWYFDLWGRGTLVTVSS VL: DIRVTQSPSTLSASVGDRVTITCRASQSVSTWLAWYQQKPGKPPSLLIFKASTLESGVPSRFSGSGSGTEFTLTISSLQPDDFATYYCQQYNTYSPWTFGPGTKVEIK , please.
Response: 9.79

Request: So what's the measured pKd for this one? ADI-21008 (antibody, V domains shown, also called Ab 259) VH: QVQLQESGAGLLKPSETLSLTCTVYGGTFSGYHWNWIRQPPGKGLEWIGEINHRENTDYNASLESRVTISVDTSKRQFSLKMNSVTVADTAVYYCARGIQVLTNLGTEVRVHQFLDLWGRGTLVTVSS VL: DIVLTQTPATLSLSPGERATLSCRASQSVSTYLAWYQQKPGQAPRLLIYDASNRAAGIPARFSGSGSGTDFTLTISSLEPEDFAVYYCQQRTNWLPLTFGGGTKVDIK
Response: 9.04

Request: Return reported pKd; argument: ADI-21000 (antibody, V domains shown) VH: EVQLVESGPVLVKPRGTLTLTCTVSGFSLSDARMGVSWIRQPPGKALEWLAHIFWDDEKSYSTSLKNRLTISKDTSRGQVVLRMTNMDPVDTGTYFCARVNTYHSGGYYLYYFDVWGQGTLVTVSS VL: EIVLTQSPSSLSASVGDRVTITCRASQIIASYLNWYQQKPGQAPKLLIYAASSLQSGVPSRFSGSGSGTDFTLTISSLQPEDFATYYCQQSYSTRMYTFGQGTKVEIK
Response: 9.53

---
Request: // pKd lookup, key: ADI-20981 (antibody, V domains shown) VH: QVQLQESGPRLVKPSETLSLTCTVSGDSISSRNYFWAWIRQPPGKGLEWIGTIYYSGNTYSNPSLKSRVTISVDTSKKQFSLNLSSVTAADTAVYYCARGAYGGDAFDIWGQGTVVTVSS VL: DIRVTQSPSSVSASVGDRVTITCRASQGIGTWLAWYQQKPGKAPHLLIYAASRLQSGVPSRFSGSGSGTDFTLSISSLHPEDFATYYCQQAYAFPRTFGQGTKVEIK
Response: 9.63

meta.source: patent US20260258115A1
